# Measurement Target: IRAK4 (Homo sapiens)
# Construct: endogenous in cells; host or cells: OCI-LY10
# Method Summary: IRAK4 MSD Degradation in OCI-LY10
# Assay type: cell-based
# Study Conditions: OCI-LY10 cells, Meso Scale Discovery, incubated 4 to 24 hours
# Method: Degradation of IRAK4 in OCI-LY10 was quantitatively measured using Meso Scale Discovery technology. OCI-LY10 cells were seeded in 96-well plates (Corning 3799) with a density of 300,000 cells per well in 100 μL fresh media. […] The assay plates were then incubated at room temperature for 1 hour, washed 3 times with 150 μL/well TBST buffer, and 150 μL/well MSD reading buffer (Meso Scale Discovery catalog number R92TC-2) was added. […]
Measure: DC50

Illustrative cases are given below, each with its answer.
Query :: Return DC50 for the following molecule: Cn1c(=O)n(C2CCC(=O)NC2=O)c2cccc(N3CCN(C[C@H]4CC[C@H](n5cc6cc(NC(=O)c7cccc(C(F)(F)F)n7)c(N7C[C@@H]8C[C@H]7CO8)cc6n5)CC4)CC3)c21 (stereo partly shown)
Result :: < 10 nM

Query :: Please give the documented DC50 of COc1cncc(C(=O)Nc2cc3cn([C@H]4CC[C@H](CN5CCN(c6cccc7c6n(C)c(=O)n7C6CCC(=O)NC6=O)CC5)CC4)nc3cc2OC)c1 (stereo partly shown)
Result :: < 10 nM

Query :: Give the measured DC50 for Cn1c(=O)n(C2CCC(=O)NC2=O)c2cccc(C3CCN(C[C@H]4C[C@H](n5cc6cc(NC(=O)c7cccc(C(F)(F)F)n7)c(F)cc6n5)C4)CC3)c21 (stereo partly shown)
Result :: 10 to 50 nM

Query :: Item CC(C)(O)c1cc2nn(-c3ccc(CN4CCC5(CCC(Nc6cccc7c6C(=O)N(C6CCC(=O)NC6=O)C7=O)CC5)CC4)cc3)cc2cc1NC(=O)c1cccc(C(F)(F)F)n1 (stereo not shown) : provide DC50
Result :: 100 to 200 nM

Query :: Fill in reported DC50 for this entry: Cc1cc2nn([C@H]3CC[C@H](CN4CCN(c5cccc6c5n(C5CC5)c(=O)n6C5CCC(=O)NC5=O)CC4)CC3)cc2cc1NC(=O)c1cccc(C(F)(F)F)n1 (stereo partly shown)
Result :: 10 to 50 nM

Query :: Look up DC50 of Cn1c(=O)n(C2CCC(=O)NC2=O)c2cccc(C3CCN(C[C@H]4CC[C@H](n5cc6cc(NC(=O)c7cccc(C(F)(F)F)n7)c(N7C[C@H]8C[C@@H]7CO8)cc6n5)CC4)CC3)c21 (stereo partly shown) and report it.
Result :: < 10 nM

Continuing:
Query :: Item `N#Cc1cnc2c(C(=O)Nc3ccc4nn([C@H]5CC[C@H](CN6CCC(c7ccc8c(N9CCC(=O)NC9=O)cncc8c7)CC6)CC5)cc4c3)cnn2c1` : provide DC50
Result :: > 200 nM

Query :: Report DC50 for `COc1cc2nn([C@H]3CC[C@H](CN4CCN(c5cccc6c(N7CCC(=O)NC7=O)ccnc56)CC4)CC3)cc2cc1NC(=O)c1cccc(C(F)(F)F)n1`
Result :: < 10 nM

Query :: Quote DC50 reported for COc1cc2nn([C@H]3CC[C@H](CN4CCN(c5c(OC)ccc6c5n(C)c(=O)n6C5CCC(=O)NC5=O)CC4)CC3)cc2cc1NC(=O)c1cccc(C(F)(F)F)n1 (stereo partly shown) please.
Result :: < 10 nM

Query :: Give DC50 for the following molecule: Cn1c(=O)n(C2CCC(=O)NC2=O)c2ccc(F)c(C3CCN(C[C@H]4CC[C@H](n5cc6cc(NC(=O)c7cccc(C(F)(F)F)n7)ccc6n5)CC4)CC3)c21 (stereo partly shown)
Result :: 10 to 50 nM

Query :: Please supply the value of reported DC50 for the item COc1cc2nc([C@H]3CC[C@H](CN4CCC(c5cccc6c5n(C)c(=O)n6C5CCC(=O)NC5=O)CC4)CC3)sc2cc1NC(=O)c1cncc(Cl)c1 (stereo partly shown)
Result :: < 10 nM

Query :: Dear colleague, please send me the reported DC50 for COc1cc2nn([C@H]3CC[C@H](CN4CCC(c5c(OC)ccc6c5n(C)c(=O)n6C5CCC(=O)NC5=O)CC4)CC3)cc2cc1NC(=O)c1cccc(C(F)(F)F)n1 (stereo partly shown) when you can.
Result :: < 10 nM

Query :: Indicate the recorded DC50 value for this molecule: `COc1cc2nn([C@H]3CC[C@H](CN4CC=C(c5cccc6c(N7CCC(=O)NC7=O)cncc56)CC4)CC3)cc2cc1NC(=O)c1cccc(C(F)(F)F)n1`
Result :: < 10 nM

Query :: Quickly give me recorded DC50 for CC(C)(O)c1cc2nc([C@H]3CC[C@H](CN4CCN(CCNc5cccc6c5C(=O)N(C5CCC(=O)NC5=O)C6=O)CC4)CC3)sc2cc1NC(=O)c1cccc(C#N)n1 (stereo partly shown)
Result :: 10 to 50 nM

Query :: Identify measured DC50 associated with COc1cc2nn([C@H]3CC[C@H](CN(C)C4CCN(c5cccc6c5n(C)c(=O)n6C5CCC(=O)NC5=O)CC4)CC3)cc2cc1NC(=O)n1ccc2cccnc21 (stereo partly shown)
Result :: < 10 nM

Query :: Answer with reported DC50 of Cn1c(=O)n(C2CCC(=O)NC2=O)c2cccc(N3CCN(C[C@H]4CC[C@H](n5cc6cc(NC(=O)c7cccc(C(F)(F)F)n7)c(N7CCC7)cc6n5)CC4)CC3)c21 (stereo partly shown)
Result :: 10 to 50 nM

Query :: Note down DC50 recorded for Cn1c(=O)n(C2CCC(=O)NC2=O)c2cccc(N3CCN(C[C@H]4CC[C@H](n5cc6cc(NC(=O)c7cccc(C(F)(F)F)n7)c(S(C)(=O)=O)cc6n5)CC4)CC3)c21 (stereo partly shown)
Result :: < 10 nM

Query :: Please give measured DC50 of the following entry: CC(C)(O)c1cc2nc([C@H]3CC[C@H](CN4CC5(CC(CCNc6cccc7c6C(=O)N(C6CCC(=O)NC6=O)C7=O)C5)C4)CC3)[nH]c2cc1NC(=O)c1cccc(C(F)(F)F)n1 (stereo partly shown)
Result :: 50 to 100 nM

Query :: For the molecule `COc1cc2nn([C@H]3CC[C@H](CN4CCN(c5c(C)ccc6c(N7CCC(=O)NC7=O)cncc56)CC4)CC3)cc2cc1NC(=O)c1cccc(C(F)(F)F)n1` , give its reported DC50.
Result :: < 10 nM

Query :: Read the entry CC(C)Nc1c(C(=O)N[C@H]2CC[C@H](CN3CCC(c4cccc5c4n(C)c(=O)n5C4CCC(=O)NC4=O)CC3)CC2)cnc2c1Oc1cc(C#N)ccc1O2 (stereo partly shown) and write its reported DC50.
Result :: < 10 nM

Query :: Using known records, supply DC50 for COc1cc2nn([C@H]3CC[C@H](CN4CCC(c5c(Cl)ccc6c5n(C)c(=O)n6C5CCC(=O)NC5=O)CC4)CC3)cc2cc1NC(=O)c1cccc(C(F)(F)F)n1 (stereo partly shown)
Result :: < 10 nM

Query :: // Input: CC(C)Nc1cc(-n2ccc3cc(C#N)cnc32)ncc1C(=O)N1CCC(CN(C)C2CCN(c3cccc4c3n(C)c(=O)n4C3CCC(=O)NC3=O)CC2)CC1 (stereo not shown) . Output its DC50 only.
Result :: > 200 nM

* * *

This listing pairs compounds with measured DC50.
# Measurement Target: IRAK4 (Homo sapiens, UniProt Q9NWZ3)
# Construct: endogenous in cells; host or cells: OCI-LY10
# Sequence (Q9NWZ3 whole entry): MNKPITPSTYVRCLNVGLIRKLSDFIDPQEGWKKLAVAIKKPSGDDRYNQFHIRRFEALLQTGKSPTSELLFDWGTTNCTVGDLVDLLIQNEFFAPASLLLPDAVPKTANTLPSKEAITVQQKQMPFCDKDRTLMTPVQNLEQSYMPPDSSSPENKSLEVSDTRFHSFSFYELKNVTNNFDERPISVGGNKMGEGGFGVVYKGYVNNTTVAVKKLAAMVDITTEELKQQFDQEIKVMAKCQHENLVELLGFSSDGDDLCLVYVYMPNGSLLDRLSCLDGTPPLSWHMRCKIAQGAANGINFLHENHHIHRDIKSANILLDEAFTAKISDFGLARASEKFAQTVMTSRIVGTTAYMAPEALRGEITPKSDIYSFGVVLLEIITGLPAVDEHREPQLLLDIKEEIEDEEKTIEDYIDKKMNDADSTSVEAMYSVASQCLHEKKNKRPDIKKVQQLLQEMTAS
# Method Summary: IRAK4 MSD Degradation in OCI-LY10
# Format: cell-based
# Study Conditions: OCI-LY10 cells, Meso Scale Discovery, incubated 4 to 24 hours
# Method: Degradation of IRAK4 in OCI-LY10 was quantitatively measured using Meso Scale Discovery technology. OCI-LY10 cells were seeded in 96-well plates (Corning 3799) with a density of 300,000 cells per well in 100 μL fresh media. […] The assay plates were then incubated at room temperature for 1 hour, washed 3 times with 150 μL/well TBST buffer, and 150 μL/well MSD reading buffer (Meso Scale Discovery catalog number R92TC-2) was added. […]

// solved cases for DC50 follow
Query :: Please report DC50 for the following compound: COc1cc2nn([C@H]3CC[C@H](CN4CCN(c5cccc6c5n(C)c(=O)n6C5CCC(=O)NC5=O)CC4(C)C)CC3)cc2cc1NC(=O)c1cccc(C(F)(F)F)n1 (stereo partly drawn) [I-306]
Result :: 10 to 50 nM

Query :: Give the reported DC50 for this compound. Cc1cccc(C(=O)Nc2cc3sc([C@H]4CC[C@H](CN5CCO[C@H](CCCNc6cccc7c6C(=O)N(C6CCC(=O)NC6=O)C7=O)C5)CC4)nc3cc2C(C)(C)O)n1 (stereo partly drawn) [I-477]
Result :: 100 to 200 nM

Next:
Query :: Check the records and state DC50 for COc1cc2nc([C@H]3CC[C@H](CN4CCC5(CC4)CC(CCNc4cccc6c4C(=O)N(C4CCC(=O)NC4=O)C6=O)C5)CC3)oc2cc1NC(=O)c1cnn2cccnc12 (stereo partly drawn) [I-7]
Result :: > 200 nM
